# Experiment summary: reversal of MRP1-mediated doxorubicin resistance, pilot screen, H69AR cells, doxorubicin co-treatment (AID 601)
# Study conditions: H69AR cells + 2 uM doxorubicin, CellTiter-Glo, 72 h; measured here: viability with 2 uM doxorubicin; at 10 µM; stronger effect = lower value
Recorded endpoint: viability (%)
Give the value, in units of %, as a plain number.

Molecule | viability / %
COc1ccc(-c2cc3nc(C)c(CCC(=O)NCc4ccco4)c(C)n3n2)c(OC)c1 | 88.4
CCCCCOC(=O)CSc1nnc(-c2cc(OC)c(OC)c(OC)c2)o1 | 93.2
COC(=O)c1cc2ccsc2n1CC(=O)Nc1cc(C)cc(C)c1 | 84.8
CC(C)C1Cc2c(C#N)c(N)sc(=S)c2CO1 (stereo unspecified) | 96.2
COc1ccc(C(=O)OCC(=O)NCc2ccco2)cc1OC | 82.1

INPUT: Identify measured viability corresponding to CCCC(C(=O)NCc1ccco1)N(C(=O)CNS(=O)(=O)c1ccc(Cl)cc1)C1CCCC1 (stereo unspecified)
OUTPUT: 86.8

INPUT: Look up viability of "CCCN(CCC)S(=O)(=O)c1ccc(C(=O)Nc2nnc(-c3cccc(OC)c3)o2)cc1" and report it.
OUTPUT: 22.3

INPUT: Entry "Cc1ccc(NC(=O)CSc2nnc(CSc3nc(C)cc(C)n3)n2Cc2ccco2)c(C)c1" needs its viability filled in; supply it.
OUTPUT: 64.7

----------
# viability annotations
# Experiment summary: reducers of endogenous Her2 protein level, primary screen, SKBR3 breast tumor cells, AlphaScreen, ATP viability (AID 461);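 note: percent of carrier control wells set as 100% viability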
# Study conditions: 18-24 h, measured here: SKBR3 viability, ATP luminescence, at 10 µM
// units = %; emit number, no label

Worked cases, viability given:
Compound | Recorded measurement
O=C(CSCCSCC(=O)c1ccco1)c1ccco1 | 83.5
CSc1ccc(Cn2nnc(C(=O)NCc3ccccc3)c2N)cc1 | 96.5
COc1ccc(N(CC(=O)N2c3ccccc3CC2C)S(=O)(=O)c2c(C)noc2C)cc1 (configuration not stated) | 88.5
Cn1c(=O)n(C)c2cc(CNc3ccc(N4CCOCC4)c(C(=O)O)c3)ccc21 | 107
Cc1cc(/C=N/n2cnnc2)c(C)n1-c1ccc(Cl)cc1Cl | 99.5

INPUT: Write down viability measured for item "COc1ccc(NC(C)=O)cc1NC(=O)CN1CCN(c2ccccn2)CC1"
OUTPUT: 96

INPUT: Provide viability value for the following compound: "Cc1nc2ccccc2c2oc(C(=O)NCc3ccccn3)cc12"
OUTPUT: 81

INPUT: Tell me measured viability for "Cc1cccc(-c2nnc(SCC#N)n2-c2cccc(Cl)c2)c1" please.
OUTPUT: 90.5

INPUT: Assign viability to the following record: "c1ccc(-n2c(Sc3cnccn3)nnc2-c2cccs2)cc1"
OUTPUT: 114

INPUT: Specify viability for "O=C(O)c1cc(Cl)c(Cl)cc1C(=O)N1CCCC1" and stop.
OUTPUT: 97.5

INPUT: Answer with reported viability of "CCOC(=O)c1c(C)[nH]c(C(=O)Cn2c(=O)oc3ccccc32)c1C"
OUTPUT: 102

INPUT: Input CN1C(=O)C(CC(=O)N2CCN(C(c3ccccc3)c3ccccc3)CC2)N(C)C1=O (configuration not stated) , output reported viability.
OUTPUT: 90.5

INPUT: Note down viability recorded for "NC(=O)C1CCN(CC(=O)N2c3ccccc3CCc3ccccc32)CC1"
OUTPUT: 117

INPUT: State its viability for this compound: "NC(=O)COC(=O)CNC(=O)c1ccc(Cl)cc1"
OUTPUT: 125

INPUT: Find the measured viability of "Cc1ccc2c(Cl)cc(Cl)c(OCc3c(C)noc3C)c2n1" and report it.
OUTPUT: 102

INPUT: Please give measured viability of the following entry: "CCC(CC)C(=O)Nc1cccc(C(=O)NCc2ccco2)c1"
OUTPUT: 94

INPUT: Please list viability recorded for the compound "CCOC(=O)Nc1ccc2c(CN3C(=O)NC4(CCCC4)C3=O)cc(=O)oc2c1"
OUTPUT: 89.5

INPUT: Note viability for the compound shown: "Cc1nc(N)c(C#N)c(-c2cccnc2)c1C"
OUTPUT: 94

INPUT: Name the recorded viability of the item Cc1ccc(-c2noc(C3CCCN(C(=O)c4ccccc4)C3)n2)o1 (configuration not stated) in your answer.
OUTPUT: 86

INPUT: For "CCCc1cc(C(N)=O)c(NC(=O)c2ccco2)s1" , write its viability.
OUTPUT: 102

INPUT: Supply viability value. Item: "CC(=O)N1CCC(N(C(=O)Nc2ccc(C)c(C)c2)C2CCCC2)CC1"
OUTPUT: 92

INPUT: Quick one: give measured viability for "CC(C)N(C(=O)CSc1nnc(NC(=O)C2CCC2)s1)C(C)C"
OUTPUT: 82.5

INPUT: Return reported viability. Input compound: "CC1(C)CC(CCNC(=O)c2ccco2)CC(C)(C)N1"
OUTPUT: 106

INPUT: State its viability for this compound: COc1cc2c(c(OC)c1)C(c1ccncc1)CC(=O)N2 (configuration not stated)
OUTPUT: 89
